# target_system: GFP-HTTQ74 reporter construct
# protocol_text: cell-based or functional assay
# maps each entry to its Reduction (%) of protein aggregation
I only need the number, in %, no unit after it.

Construct 59, JB13-QBP1-QBP1 (designed binder) MGQDYYSVLGITRNSEDAQIKQAYRRLALKHHPLKSNEPSSAEIFRQIAEAYDVLSDPMKRGIYDKFGEEGLKGGDIGGGGSGGGGSGGGGSAAASNWKWWPGIFDLEGDYKDDDDKGSRAAASNWKWWPGIFDLE	-27
Construct 61, JC7-QBP1-QBP1 (designed binder) MDYYKILGVDKNASEDEIKKAYRKRALMHHPDRHSGASAEVQKEEEKKFKEVGEAFTILSDPKKKTRYDSGQDIGGGGSGGGGSGGGGSAAASNWKWWPGIFDLEGDYKDDDDKGSRAAASNWKWWPGIFDLE	89

Noted for Construct 34, JB1-QBP1-QBP1 (1) (designed binder) MGKDYYQTLGLARGASDEEIKRAYRRQALRYHPDKNKEPGAEEKFKEIAEAYDVLSDPRKREIFDRYGEEGLKGSGGGGSGGGGSGGGGSGGGGSAAASNWKWWPGIFDLEGDYKDDDDKGSRAAASNWKWWPGIFDLE : its Reduction (%) of protein aggregation reads 96.1

Noted for Construct 62, DnaJ-QBP1-QBP1 (designed binder) MAKQDYYEILGVSKTAEEREIRKAYKRLAMKYHPDRNQGDKEAEAKFKEIKEAYEVLTDSQKRAAYDQYGHADIGGGGSGGGGSGGGGSAAASNWKWWPGIFDLEGDYKDDDDKGSRAAASNWKWWPGIFDLE : its Reduction (%) of protein aggregation reads 15.7
